tgt: Carbonic anhydrase 1 (Homo sapiens, UniProt P00915)
Sequence (P00915 whole entry): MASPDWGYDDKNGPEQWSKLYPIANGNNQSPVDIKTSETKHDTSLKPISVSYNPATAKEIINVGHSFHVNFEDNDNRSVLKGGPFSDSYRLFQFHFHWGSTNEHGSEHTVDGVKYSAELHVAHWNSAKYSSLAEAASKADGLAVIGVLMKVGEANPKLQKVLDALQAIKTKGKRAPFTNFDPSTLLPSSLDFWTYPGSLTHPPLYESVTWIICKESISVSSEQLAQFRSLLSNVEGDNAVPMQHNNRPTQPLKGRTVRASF

- smilesRecord: "O=C(c1cc(O)c(O)cc1Br)c1cc(Br)c(O)c(O)c1O"
  unitInfo: "nM"
  Ki: 1190

###

tgt: Carbonic anhydrase 2 (Homo sapiens, UniProt P00918)
assaySummary: Esterase Assay
conditionSummary: pH 7.4
pKi: −log10 of the molar value.
measuredParameter: pKi

- smilesRecord: "O=C(c1ccc(O)c(O)c1)c1cc(Br)c(O)c(O)c1O"
  experimentalValue: 5.49

###

System: UniProt P00915 | Read-out: IC50

- smilesRecord: "O=C(c1ccc(O)c(O)c1)c1cc(Br)c(O)c(O)c1O"
  IC50: "6.92 µM"
- smilesRecord: "O=C(c1ccc(O)c(O)c1)c1ccc(O)c(O)c1O"
  IC50: "27.8 µM"
